- Experimental protocol: Hygroscopicity measurements (DVS sorption/desorption profiles)
- Type: physicochemical
- Condition: Target % P/P0 20.0; 25° C.
Outcome measure: Change in Mass (%) - ref, Hysteresis

> print(dat)
                                   molecule  numeric.value
1  Cc1nc(-c2ccc(OCC(C)C)c(C#N)c2)sc1C(=O)O [Form IX]          0.128
2  Cc1nc(-c2ccc(OCC(C)C)c(C#N)c2)sc1C(=O)O [Form XI]          0.146
3  Cc1nc(-c2ccc(OCC(C)C)c(C#N)c2)sc1C(=O)O [Form V]          −8.60
4  Cc1nc(-c2ccc(OCC(C)C)c(C#N)c2)sc1C(=O)O [Form G of U.S. Pat. No. 6,225,474, reference compound]          0.215

---

Recorded Change in Mass (%) - ref, Desorption by entry
- Experimental protocol: Hygroscopicity measurements (DVS sorption/desorption profiles)
- Type: physicochemical
- Condition: Target % P/P0 10.0; 25° C.
Outcome measure: Change in Mass (%) - ref, Desorption

> print(dat)
                                   compound                       outcome.measure  readout.units  numeric.value
1  Cc1nc(-c2ccc(OCC(C)C)c(C#N)c2)sc1C(=O)O [Form IX]  Change in Mass (%) - ref, Desorption              %          0.247
2  Cc1nc(-c2ccc(OCC(C)C)c(C#N)c2)sc1C(=O)O [Form XI]  Change in Mass (%) - ref, Desorption              %          0.973
3  Cc1nc(-c2ccc(OCC(C)C)c(C#N)c2)sc1C(=O)O [Form V]  Change in Mass (%) - ref, Desorption              %          −8.56
4  Cc1nc(-c2ccc(OCC(C)C)c(C#N)c2)sc1C(=O)O [Form G of U.S. Pat. No. 6,225,474, reference compound]  Change in Mass (%) - ref, Desorption              %          1.323

---

Property: Change in Mass (%) - ref, Desorption; scope: individual compounds
- Experimental protocol: Hygroscopicity measurements (DVS sorption/desorption profiles)
- Format: physicochemical
- Condition: Target % P/P0 30.0; 25° C.
Outcome measure: Change in Mass (%) - ref, Desorption

> print(dat)
                                   compound  readout.units  numeric.value
1  Cc1nc(-c2ccc(OCC(C)C)c(C#N)c2)sc1C(=O)O [Form XI]              %          1.425
2  Cc1nc(-c2ccc(OCC(C)C)c(C#N)c2)sc1C(=O)O [Form IX]              %          0.428
3  Cc1nc(-c2ccc(OCC(C)C)c(C#N)c2)sc1C(=O)O [Form V]              %          −8.40
4  Cc1nc(-c2ccc(OCC(C)C)c(C#N)c2)sc1C(=O)O [Form G of U.S. Pat. No. 6,225,474, reference compound]              %          1.692

---

- Experimental protocol: Hygroscopicity measurements (DVS sorption/desorption profiles)
- Type: physicochemical
- Condition: Target % P/P0 80.0; 25° C.
Outcome measure: Change in Mass (%) - ref, Hysteresis

> print(dat)
                                   molecule                       outcome.measure  result
1  Cc1nc(-c2ccc(OCC(C)C)c(C#N)c2)sc1C(=O)O [Form XI]  Change in Mass (%) - ref, Hysteresis  0.089%
2  Cc1nc(-c2ccc(OCC(C)C)c(C#N)c2)sc1C(=O)O [Form IX]  Change in Mass (%) - ref, Hysteresis  0.583%
3  Cc1nc(-c2ccc(OCC(C)C)c(C#N)c2)sc1C(=O)O [Form G of U.S. Pat. No. 6,225,474, reference compound]  Change in Mass (%) - ref, Hysteresis  0.078%
4  Cc1nc(-c2ccc(OCC(C)C)c(C#N)c2)sc1C(=O)O [Form V]  Change in Mass (%) - ref, Hysteresis   7.98%
